- Tested on: Huh6 cells
- experimentalSetup: 4% FBS
measuredQuantity: MN effects after 24 hr (or longer) compared with 4 hr treatment (in words)

- Cn1c(N)nc2ncc(-c3ccccc3)cc21 [PhiP]: more pronounced effects
- [NH2][Pt]([NH2])([Cl])[Cl] [CDDP, Cisplatin]: similar
- Cn1c(N)nc2c3cccnc3ccc21 [IQ]: more pronounced effects
- CN(C)N=O [NDMA, N‐nitrosodimethylamine]: more pronounced effects

Param readout = MN effects after 24 hr (or longer) compared with 4 hr treatment (in words); param system = Huh6 cells; param query = COS(C)(=O)=O [MMS, Methyl methanesulfonate] ; response: value
similar

Source: paper PMC6492180
